# EC50 per entry
tested-system: DLL4 (human, UniProt Q9NR61)
Sequence (Q9NR61 27-524): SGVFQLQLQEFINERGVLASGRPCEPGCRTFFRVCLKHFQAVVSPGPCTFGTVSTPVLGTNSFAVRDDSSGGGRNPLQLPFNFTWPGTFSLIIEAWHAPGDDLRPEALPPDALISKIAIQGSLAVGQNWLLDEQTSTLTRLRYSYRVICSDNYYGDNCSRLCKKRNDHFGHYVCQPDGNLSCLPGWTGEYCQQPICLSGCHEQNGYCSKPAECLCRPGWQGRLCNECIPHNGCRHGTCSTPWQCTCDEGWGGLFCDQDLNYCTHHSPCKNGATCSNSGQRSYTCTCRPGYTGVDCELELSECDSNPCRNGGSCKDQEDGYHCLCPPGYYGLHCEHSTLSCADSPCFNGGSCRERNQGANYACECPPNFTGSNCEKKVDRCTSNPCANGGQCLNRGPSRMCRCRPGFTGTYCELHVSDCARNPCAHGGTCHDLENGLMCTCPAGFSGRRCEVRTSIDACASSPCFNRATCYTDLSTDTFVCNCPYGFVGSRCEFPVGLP
assay-name: ELISA

[[record]]
binder = "DVD453 DLL4 arm (antibody, V domains shown, DVD-Ig outer) VH: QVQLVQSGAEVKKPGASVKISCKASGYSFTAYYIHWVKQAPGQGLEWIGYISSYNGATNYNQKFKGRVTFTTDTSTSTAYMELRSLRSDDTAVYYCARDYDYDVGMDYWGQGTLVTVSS VL: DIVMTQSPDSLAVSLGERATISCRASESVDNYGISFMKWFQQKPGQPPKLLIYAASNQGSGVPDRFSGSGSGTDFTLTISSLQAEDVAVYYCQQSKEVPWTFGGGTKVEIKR"
obs_value = "0.09 nM"

[[record]]
binder = "DVD506 DLL4 arm (antibody, V domains shown, DVD-Ig inner) VH: EVQLQQSGPELVKPGASVKMSCKASGYTFTSYVINWVKQKPGQGLEWIGLINPYNDGTKYNEKFKVKATLTSDKSSSTAYMELSSLTSEDSAVYYCASYYYGSRYYFDYWGQGTTLTVSS VL: DIQMTQSSSYLSVSLGGRVTITCKASDHINNWLAWYQQKPGNAPRLLISGATSLETGVPSRFSGSGSGKDYTLSITSLQTEDVATYYCQQYWSIPLTFGAGTKLELKR"
obs_value = "0.32 nM"


Okay, now this binder:
Which EC50 reading was recorded for the binder DVD481 DLL4 arm (antibody, DVD-Ig outer) chain 1: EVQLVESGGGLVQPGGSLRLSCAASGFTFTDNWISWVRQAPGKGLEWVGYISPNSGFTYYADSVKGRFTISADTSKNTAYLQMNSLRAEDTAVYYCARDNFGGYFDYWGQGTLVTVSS chain 2: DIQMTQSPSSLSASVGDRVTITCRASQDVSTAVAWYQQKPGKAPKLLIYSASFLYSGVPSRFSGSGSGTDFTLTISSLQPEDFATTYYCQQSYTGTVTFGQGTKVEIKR ?
3.3 nM
